Each recorded value in this set is attributed to patent US20240294623A1.

# systemTested: T1, hGARP-proTGFβ1 (human, UniProt Q14392 18-627; P01137 30-390, limits assumed)
# T1 construct: LLC as m1; Same id used for the cell-surface complex in reporter assays; also called human GARP-proTGFβ1 complex; GARP-ProTGFb1
# T1 sequence (Q14392 18-627 limits assumed, chain 1 of 2): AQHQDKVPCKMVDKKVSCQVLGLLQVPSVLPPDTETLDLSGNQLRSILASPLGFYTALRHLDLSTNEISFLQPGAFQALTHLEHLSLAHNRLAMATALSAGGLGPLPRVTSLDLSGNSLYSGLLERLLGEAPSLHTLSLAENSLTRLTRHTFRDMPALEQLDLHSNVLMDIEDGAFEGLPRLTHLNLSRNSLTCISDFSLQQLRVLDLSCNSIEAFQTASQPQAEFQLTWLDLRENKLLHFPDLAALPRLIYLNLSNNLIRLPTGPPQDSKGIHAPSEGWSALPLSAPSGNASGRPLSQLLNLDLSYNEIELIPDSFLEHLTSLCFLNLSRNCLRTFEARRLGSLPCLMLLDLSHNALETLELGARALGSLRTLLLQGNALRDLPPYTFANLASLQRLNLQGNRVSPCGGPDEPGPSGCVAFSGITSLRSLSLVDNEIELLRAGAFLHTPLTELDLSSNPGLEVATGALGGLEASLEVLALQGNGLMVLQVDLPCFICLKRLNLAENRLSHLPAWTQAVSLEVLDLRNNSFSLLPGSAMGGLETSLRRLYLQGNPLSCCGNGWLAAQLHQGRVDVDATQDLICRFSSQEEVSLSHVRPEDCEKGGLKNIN
# T1 sequence (P01137 30-390 limits assumed, chain 2 of 2): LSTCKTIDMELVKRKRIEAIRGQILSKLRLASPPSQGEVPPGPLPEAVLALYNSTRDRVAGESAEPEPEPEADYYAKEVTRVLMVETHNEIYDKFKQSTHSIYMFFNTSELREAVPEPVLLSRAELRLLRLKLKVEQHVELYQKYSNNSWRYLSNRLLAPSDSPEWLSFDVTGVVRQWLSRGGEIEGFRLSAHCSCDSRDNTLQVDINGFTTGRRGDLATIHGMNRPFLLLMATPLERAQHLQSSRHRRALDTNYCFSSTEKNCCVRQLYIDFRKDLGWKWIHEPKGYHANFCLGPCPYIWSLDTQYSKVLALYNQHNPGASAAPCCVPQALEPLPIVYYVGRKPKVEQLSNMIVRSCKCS
# measurementDescription: BLI (Octet)
readoutType: Kd (pM)
Your answer is read as pM, so omit the unit and give the number.

Retrieve Kd measured for Ab26 (antibody, V domains shown) VH: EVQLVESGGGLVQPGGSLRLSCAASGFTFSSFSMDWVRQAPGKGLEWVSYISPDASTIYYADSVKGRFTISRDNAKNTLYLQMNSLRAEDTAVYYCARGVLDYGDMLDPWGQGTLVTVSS VL: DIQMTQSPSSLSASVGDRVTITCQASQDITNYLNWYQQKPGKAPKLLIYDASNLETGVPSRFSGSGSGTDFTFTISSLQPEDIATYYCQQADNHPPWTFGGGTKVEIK and print it.
625

Write down Kd measured for item Ab30 (antibody, V domains shown) VH: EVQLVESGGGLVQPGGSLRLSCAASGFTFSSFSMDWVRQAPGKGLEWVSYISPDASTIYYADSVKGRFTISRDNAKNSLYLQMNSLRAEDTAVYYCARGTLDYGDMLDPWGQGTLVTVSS VL: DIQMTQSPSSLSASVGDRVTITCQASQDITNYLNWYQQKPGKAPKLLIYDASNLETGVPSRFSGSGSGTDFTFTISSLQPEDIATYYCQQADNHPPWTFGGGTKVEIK
833

Quick one: give measured Kd for Ab23 (antibody, V domains shown) VH: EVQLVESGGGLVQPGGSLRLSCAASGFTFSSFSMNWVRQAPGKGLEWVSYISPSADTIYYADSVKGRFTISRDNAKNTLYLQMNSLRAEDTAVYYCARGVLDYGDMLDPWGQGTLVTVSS VL: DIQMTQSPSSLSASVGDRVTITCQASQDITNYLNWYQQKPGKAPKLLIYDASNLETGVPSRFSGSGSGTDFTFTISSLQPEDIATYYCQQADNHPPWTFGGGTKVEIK
1340

Give recorded Kd. Ab27 (antibody, V domains shown) VH: EVQLVESGGGLVQPGGSLRLSCAASGFTFSFYAMNWVRQAPGKGLEWVSYISPDASTIYYADSVKGRFTISRDNAKNSLYLQMNSLRAEDTAVYYCARGVLDYGDMLDPWGQGTLVTVSS VL: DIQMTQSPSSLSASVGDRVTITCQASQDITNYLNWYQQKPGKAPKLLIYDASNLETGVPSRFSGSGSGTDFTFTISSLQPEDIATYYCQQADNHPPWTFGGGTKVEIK
424

Could you please provide reported Kd for Ab6 (antibody, V domains shown, Fully human IgG4/kappa) VH: EVQLVESGGGLVQPGGSLRLSCTASGFTFSSFSMDWVRQAPGKGLEWVSYISPSADTIYYADSVKGRFTISRDNAKNTLYLQMNSLRAEDTAVYYCARGVLDYGDMLMPWGQGTLVTVSS VL: DIQMTQSPSSLSASVGDRVTITCQASQDITNYLNWYQQKPGKAPKLLIYDASNLETGVPSRFSGSGSGTDFTFTISSLQPEDIATYYCQQADNHPPWTFGGGTKVEIKR ? Thanks!
404
